System: SK-MEL-5 melanoma
assayNotes: NCI-60 one-dose screen, 48 h
recordedConditions: 10 µM unless noted
Compounds without any hit were thinned out: in the full panel of roughly 83,000, 20% have a hit. Calls of active or inactive are those of the source. The calls were made as follows: active = growth percent below 10; inactive = the rest.
Valid outcomes are listed here; reply with one: active, inactive

* CCSc1nc(Nc2ccc(S(=O)(=O)Nc3ccon3)cc2)c(C#N)c(-c2cccc(Br)c2)n1 | inactive
* CCSc1nc(-c2ccc(F)cc2)c(C#N)c(=O)[nH]1 | inactive
* ICCC(c1ccccc1)(c1ccccc1)c1ccccc1 | active
* CC(NNC(=S)N1CCCCCC1)c1ccc2ccccc2n1 (stereo not given) | inactive
* CSc1nc(Nc2ccc(S(=O)(=O)Nc3ccon3)cc2)c(C#N)c(-c2ccc(Cl)cc2)n1 | inactive
* O=C(NC1CCS(=O)(=O)C1)c1ccc(C(=O)c2ccccc2)cc1 (stereo not given) | inactive

Please state the recorded outcome for this compound: CC(C)C[C@H](NC(=O)/C=C/Cn1ccc2ccccc2c1=O)B(O)O
inactive

Thanks! And CCCCCCCCCCNCCSS(=O)(=O)O ?
inactive

Thanks! And Cn1ccnc1C(=O)/C=C/c1ccc(C(=O)Nc2nc3ccccc3[nH]2)cc1 ?
inactive

Thanks! And Cc1cnc2nc(-c3ccc(N(C)C)cc3)cn2c1 ?
inactive

Thanks! And Cc1ccccc1NC(=O)N/C(N)=N/c1nc2ccccc2s1 ?
active

Thanks! And O=C(NCCNC(=O)Oc1cccc2ccccc12)Oc1cccc2ccccc12 ?
inactive

Thanks! And O=C(NC1CCCCC1)c1ccc(Nc2ncnc3c2cnn3-c2ccccc2)cc1 ?
inactive

Thanks! And COCCCNS(=O)(=O)c1ncnc2nc[nH]c12 ?
inactive

Thanks! And CCOc1cc(CCNS(=O)(=O)c2ccc(C)cc2)c(C(C)=O)cc1OCC ?
inactive

Thanks! And O=C(O)c1ccc2cccnc2c1O ?
active

Thanks! And COc1ccc(C(=O)COc2cccc(/C=C3\COc4ccc5ccccc5c4C3=O)c2)cc1 ?
inactive

Thanks! And CCN(CC)CCCCCCCNc1c2ccc(Cl)cc2nc2ccc(OC)cc12 ?
active

Thanks! And O=c1ccn(C2CC=C(CO)O2)c(=O)[nH]1 (stereo not given) ?
inactive

Thanks! And C1CCC(C(CC2CCCCN2)C2CCCCC2)CC1 (stereo not given) ?
active

Thanks! And CCN(CC)c1ccc(C(=C2C=CC(=[N+](CC)Cc3cccc(S(=O)(=O)O)c3)C=C2)c2ccc(N(CC)Cc3cccc(S(=O)(=O)O)c3)cc2)cc1 ?
inactive

The measured values listed here are drawn from PubChem BioAssay (NCI).
